Molecular target: human TGFßRII (antigen of the Octet experiments) (human, UniProt P37173 23-166)
Sequence (P37173 23-166): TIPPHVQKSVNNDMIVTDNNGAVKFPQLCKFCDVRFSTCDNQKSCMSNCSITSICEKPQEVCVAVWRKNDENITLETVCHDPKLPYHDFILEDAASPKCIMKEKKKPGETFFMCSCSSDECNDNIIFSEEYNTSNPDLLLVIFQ
Assay: Octet
Here the recorded Kd is given for each entry.
The figure you give is taken to be in nM; do not add the unit.

[in] Please supply the value of reported Kd for the item XENP35122 H1.33 L1 (antibody, V domains shown) VH: QLQVQESGPGLVKPSETLSLTCTVSGGSISNSYFSWAWIRQPPGKGLEWIGSFYYGEKTYYNPSLKSRATISIDTSKSQFSLKLSSVTAADTAVYYCPRGPTMIRGVIDSWGQGTLVTVSS VL: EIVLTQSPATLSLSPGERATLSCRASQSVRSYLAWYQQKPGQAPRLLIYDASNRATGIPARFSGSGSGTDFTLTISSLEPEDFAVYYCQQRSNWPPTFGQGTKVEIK
[out] 3.42

[in] Please supply the value of reported Kd for the item XENP35127 H1.48 L1 (antibody, V domains shown) VH: QLQVQESGPGLVKPSETLSLTCTVSGGSISNSYFSWGWIRQPPGKGLEWIGSFDYGEKTYYNPSLKSRATISIDTSKSQFSLKLSSVTAADTAVYYCPRGPTMIRGVIDSWGQGTLVTVSS VL: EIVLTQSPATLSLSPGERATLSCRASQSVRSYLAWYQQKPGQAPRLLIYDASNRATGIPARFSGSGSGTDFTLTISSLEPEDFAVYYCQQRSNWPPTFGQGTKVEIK
[out] 35

[in] Please supply the value of reported Kd for the item XENP34305 H1 L1 (antibody, V domains shown) VH: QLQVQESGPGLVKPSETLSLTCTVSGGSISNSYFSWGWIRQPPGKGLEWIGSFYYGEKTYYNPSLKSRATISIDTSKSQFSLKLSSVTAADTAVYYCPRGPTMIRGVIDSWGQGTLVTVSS VL: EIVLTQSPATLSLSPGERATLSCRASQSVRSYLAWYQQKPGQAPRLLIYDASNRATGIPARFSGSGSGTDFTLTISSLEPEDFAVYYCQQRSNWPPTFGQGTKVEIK
[out] 2.92
